Hey, just so you know, these numbers are from the DeepSol protein solubility set.

Experiment: soluble on expression in E. coli; label from the status in PepcDB or PDB records
OBSERVED PROPERTY: soluble on expression in E. coli

TAQIKGLTQAQRNANDGISLAQTAEGALGEISNNLQRIRELAVQASNGTNTQTDRDALQAEVTQLQSEIQRVAEQTSFNGQKLLDGSFNGVQFQIGANAGETIGVSKIMNAQTASLGGSLTRTTSTIDATDLTKYDTAMAAGDLTINGVDVGKIDAASTAQERAAQLTEAINRVSSQTNVGASYDKTTGQVTLTSNAAIAVAGAANDATVAGWANNATTGTATTTTGINSLTVSSFTNAQQTITQIDNALKDINTARADLGAVQNRFTSTVANLQSMTENLSSALEHHHHHH :: soluble
GMELKSAEEKSLYYRNKIKEVIDEVGKVVVGQKYMINRLLIGICTGGHILLEGVPGLAKTLSVNTLAKTMDLDFHRIQFTPDLLPSDLIGTMIYNQHKGNFEVKKGPVFSNFILADEVNRSPAKVQSALLECMQEKQVTIGDTTYPLDNPFLVLATQNPVEQEGTYPLPEAQVDRFMMKIHLTYLDKESELEVMRRVSNMNFNYQVQKIVSKNDVLEIRNEINKVTISESLEKYIIELVFATRFPAEYGLEAEASYILYGASTRAAINLNRVAKAMAFFNNRDYVLPEDIKEVAYDILNHRIILNYEAEAEGISTRQIIETILRKVNITKA :: soluble
MGHHHHHHSHMFSEECIMDVIGCLEYDPALSQPRKHREFLTKTAKFKEVIPISDPELKQKIHQTYRVQYIQDMVLPTPSVFEENMLSTLHSFIFFNKVEIVGMLQEDEKFLTDLFAQLTDEATDEEKRQELVNFLKEFCAFSQTLQPQNRDAFFKTLSNMGILPALEVILGMDDTQVRSAATDIFSYLVEYNPSMVREFVMQEAQQNDDVSKKLTEQKITSKVNIICTNSKYLYIGSYNCFYYSF :: soluble

###

Test: soluble on expression in E. coli; label from the status in PepcDB or PDB records
OBSERVED PROPERTY: soluble on expression in E. coli

Sample records with soluble on expression in E. coli:
MSRNRVMSIDFQQLPHAGIRSLIPYVPGKSIEELAKEKGITDIIKLASNENPLGCSPLALSVIQTMSSHYIATYPSPWNHPLMSKLASYLKVKPEQLFLSNGSDYLFNILLNCFALHTDRHILTHDYAFSTYAIQANSLQIPINSVPIGHNWEVNITDIVNACNQQTGIIFIANPNNPTGVLIQQEEIKYLLEQIPKSTLLVLDEAYYEFAASQLTVNSLDWLEEHPNLVVTRTFSKIYGMAGLRLGYAIANPSIINILKRVQLPFIVNQVALAAAYAAIDDDDFIQSSLKMNNEGMLQLQAGFNELNIKYLPSSCNFLTFDCEEDSMALYNYLLDNGIIVRPLHAYKMNNFIRVTIGTKEQNSRFLTALKNFYL :: not soluble
MSSRIRINTKSLLVQPGYSGSKMRDRLFFLLSKYGIRPRDSIGQHFLIIEDVIEKAIETANVNENDVILEVGPGLGFLTDELAKRAKKVYTIEIDQKIIEILKKEYSWNNVKIIQGDAVRVEWPKFNKVVSNIPYKISSPFTFKLLKTDFERAVVMYQLEFALRMVAKPGSRNYSRLSLMAQALGNVEIVMKIGKGAFYPRPKVDSALVLIEPRKDKIVLNENLVKALFQHRRKTVPRALKDSIHMLGVSKDEIRGIINNVPHSNKRVFQLYPEEVKDIEEYLKKHGIIS :: soluble
MFKRFRRLRLNENLRSMVRENSLSVNDLIYPLFVVNGTGIKKEISSMPDVFQMSLDEILKECQNVVNLGIKAIILFGVLENEKKDSCGSDALDDEGLVARSIREIKKNFPDLFIISDLCFCEYTDHGHCGIIDPKIKSVDNDATLEISAKQALVHARAGVDMIAPSGMMDGVITTLRKALDKEGFENLPIMAYSTKFASSYYGPFRDVAESAPSYGDRKSYQMDFANGKEALEESLEDEAQGADILMVKPALAYLDVVKEISLHSNLPLCIYNVSGEYAMLKAAKNAGVIDYEKVLYETIIAFKRAGAKLIITYHAKELAKMLKGEK :: soluble
MEPAAGSSMEPSADWLATAAARGRVEEVRALLEAGALPNAPNSYGRRPIQVMMMGSARVAELLLLHGAEPNCADPATLTRPVHDAAREGFLDTLVVLHRAGARLDVRDAWGRLPVDLAEELGHRDVARYLRAAAGGTRGSNHARIDAAEGPSDIPD :: soluble

Identify soluble on expression in E. coli associated with the sequence `MSLQLLAEIVTVHTKHPFIIARGGQSEYQVVWVRLIDADGAEGWGEASPSKYYGETADTVMVALQRFAPVLAGADAWSIEAIERELEKAMRWNAAARCAVSAALHDLAARRLGVPLWKMWGLDRQATPISSFTIGIAPDAATLRARVREAAHYPLLKIKLGSSWDREVLRIVREEAPKAQLRVDANAAWTAKQALGMLDVLNEVGVDMLEQPLPPQELAGLRFVRERSNIPVVADESCLVASDIPKLEGIVDGVNIKLAKCGSLREALRMIAVARAHGMRVMCGCMIETTLGIAAAAHFSPLLDDADLDGAALLSDDPFDGPGIPDGRVVLGDAPGLGVTRRAGNEGHHHHHH`
soluble

Identify soluble on expression in E. coli associated with the sequence `MGSDKIHHHHHHMINLNGNSSSSRQVTFITHPSIQSKAFASYLSETLMAPVVLQNINKPLAQRLAKDSVILFDIAVSNKKLNGVWRDIIRLQADNPRLLIINSAQKYELYEMAQWPALYGVFRHDDDESRLIEGVKAVLNGEQTAELSVMHPAMYAADHASTPVENSPLTERECEILNELRCGATNLDIARALFISENTVRTHLYNVFRKLSVKNRTQAVSWANEHLRH`
not soluble

###

Experiment: soluble on expression in E. coli; label from the status in PepcDB or PDB records
OBSERVED PROPERTY: soluble on expression in E. coli

Sample records with soluble on expression in E. coli:
MGSDKIHHHHHHMTVGTLPIWSKTFSYAIRSLCFLHIIHMYAYEFTETRGESMLPTLSATNDYVHVLKNFQNGRGIKMGDCIVALKPTDPNHRICKRVTGMPGDLVLVDPSTIVNYVGDVLVDEERFGTYIKVPEGHVWVTGDNLSHSLDSRTYNALPMGLIMGKIVAANNFDKPFWDGSIRNIWGFKWINNTFLDVQAKSN :: not soluble
MAHHHHHHMPPQRQCSHCEKEKAVLKRPRNGKLLCQRCFFNLFEAEVHETIMKEKLFKPGDIVACGASGGKDSTVLIHLMKLLNEQHEYGIQLLLLSIDEGIAGYRDDSLKTVHRNAEVYNLPLRVLSYKELYGWTMDEVVKVTGLRSSCTYCGVFRRQALDRGAAMLGATKVVTGHNADDLAETILMNILRGDLPRLSRCTSAITSGESLLPRVKPLKYAYEKEIVLYAHFKKLDYFTTECTYSKEAFRSEARTLLKNIEILQPRCILDTIRTGEQLRVKEQECATENPPSACTRCGYVTSQSLCRACVLLQGLNMNGPAVCVREQPQPQQQQQQQNVEVEGQ :: not soluble
MKNIIACIDGSPTTFATCEASAWVASKINAPLILLHALDKTMRPVVSEFSGQIGLGSQEELLNELAELDEARSKVALKHGKKLLEEATEWVIKKGLTNVEQLQRHGSLLESLIDLENQLRVLVIGKLGEDQSSNKTIGSQLESIIRSIKSHTLVVTSPFSIPTSYLIAFDGSPTSEKLIEKAIKTPLLFGLDCHFVMVDDFAAKSAAFEKAAIKLKNAGLSVHEDILSGSVDEALLKYQKDHQIGMMVMGAYGHSTLRQFFLGSNTTKVLIKSEVPLLLIR :: not soluble
SNAMSDKFHILLLNGPNLNLLGTREPEKYGYTTLAEIVSQLEIQAQGMDVALSHLQSNAEHALIDSIHQARGNTDFILINPAAFTHTSVALRDALLGVQIPFIEIHLSNVHAREPFRHHSYLSDIAVGVICGLGADGYNFALQAAVNRLSKSN :: soluble

Identify soluble on expression in E. coli associated with the sequence `MSLKDSEVTVLGAGVAGLAVARALALRGAEVTVLEQAEAIREVGAGLQISPNGAAVLRALGLGDALEAASMRAQAVELRNGVGGDLVLKLDLARLRPGQGYHLMHRADLIDLLAQGAREAGVQIRLLQKIEAVDLGGPRPRLVTAQGAEYAPNLLIGADGLHSLVRAELNGPAQPFFTNQVAWRTVIPATPGEPVVAEVHMGEGRHLVSYPMRGGTVRNIVAVEERKRWVQEGWNLRDDPVDLRLAFAGFNGRVRHWLEQVPDVWLWGLFRHPVAHTWYRGHAAILGDAAHPTLPFLAQGANMALEDAWVLAECLARHSNIKGGLADYQARRVPRCCRVVQAANNNAWAYHLRSPIREIAHLGLRLGSRLLPGPTLRRFDWLYGYDVTAASLEHHHHHH`
soluble
